Give IC50 for every item shown.
tested.on: 4 DMB
assay.explanation: CELIA on monoclonal 4 DMB; coated antigen not given
Where no end group is shown, it is not given here.
Respond with the bare value in nM.

## Task Query: IC50; subject: Ac-ISRRLIDRTNANFLC (not fully specified; printed as Ac-25I-S-R-R-L-I-D-R-T-N-A-N-F-L38-C) [GP4]
## Result 150

## Task Query: IC50; subject: Ac-ISRRLIDRTNANFLVWPPC [GP10]
## Result 150

Recorded values, source patent US6350731.
